B1: wild-type FICD (amino acid residues 104-445) [human] / itself (parent)
chain: LEARAALNQALEMKRQGKREKAQKLFMHALKMDPDFVDALTEFGIFSEEDKDIIQADYLYTRALTISPYHEKALVNRDRTLPLVEEIDQRYFSIIDSKVKKVMSIPKGNSALRRVMEETYYHHIYHTVAIEGNTLTLSEIRHILETRYAVPGKSLEEQNEVIGMHAAMKYINTTLVSRIGSVTISDVLEIHRRVLGYVDPVEAGRFRTTQVLVGHHIPPHPQDVEKQMQEFVQWLNSEEAMNLHPVEFAALAHYKLVYIHPFIDGNGRTSRLLMNLILMQAGYPPITIRKEQRSDYYHVLEAANEGDVRPFIRFIAKCTETTLDTLLFATTEYSVALPEAQP

Variants of: B1
Test: size-exclusion chromatography (peak elution time vs protein concentration, monomer-dimer association fit)
Conditions: with itself; non-oxidised protein; parent: 55 nM
propertyLabel: pKd
Recall that pKd is obtained by taking minus log10 of the concentration measured in molar.

### Prompt Can you look up the measured pKd of chain 1 A149C C318S for me?
### Response 6.08

Numbers sourced from paper PMC6826200.
